src = ChEMBL document CHEMBL1158801

molecular target: DNA polymerase beta (Homo sapiens); experiment: Inhibition of human recombinant DNA polymerase beta assessed as fluorescein-12-dCTP incorporation by fluorimetry
Parameter Measured: pIC50
Give bare numbers, as −log10 of the molar value.

Recorded pIC50, per entry:
>  <Compound>
CCCC(CC(=O)O)C1=C2OC(O)=C(C(=O)CC(C)C)C(=O)C2(CC=C(C)C)CC(CC=C(C)C)C1(C)C (stereo not given)

>  <pIC50>
4.92

$$$$
>  <Compound>
CCC(C)C(=O)C1=C(O)OC2=C(C(CC(=O)O)c3ccccc3)C(C)(C)C(CC=C(C)C)CC2(CC=C(C)C)C1=O (stereo not given)

>  <pIC50>
4.14

$$$$

List the reported pIC50 of each compound below.
1. CC(C)=CCC1CC2(CC=C(C)C)C(=O)C(C(=O)CC(C)C)=C(O)OC2=C(C(CC(=O)O)c2ccccc2)C1(C)C (stereo not given)
2. Nc1ccn([C@H]2CC[C@@H](COP(=O)(O)OP(=O)(O)OP(=O)(O)O)O2)c(=O)n1 [ddCTP SODIUM]
3. CCCC(CC(=O)O)C1=C2OC(O)=C(C(=O)C(C)CC)C(=O)C2(CC=C(C)C)CC(CC=C(C)C)C1(C)C (stereo not given)

Ans.
4.55
5.89
3.47
